Collected efflux ratio at 2 h values appear next to each entry.
- subject-of-test: P-gp (Homo sapiens, UniProt P08183)
- Sequence (P08183 whole entry): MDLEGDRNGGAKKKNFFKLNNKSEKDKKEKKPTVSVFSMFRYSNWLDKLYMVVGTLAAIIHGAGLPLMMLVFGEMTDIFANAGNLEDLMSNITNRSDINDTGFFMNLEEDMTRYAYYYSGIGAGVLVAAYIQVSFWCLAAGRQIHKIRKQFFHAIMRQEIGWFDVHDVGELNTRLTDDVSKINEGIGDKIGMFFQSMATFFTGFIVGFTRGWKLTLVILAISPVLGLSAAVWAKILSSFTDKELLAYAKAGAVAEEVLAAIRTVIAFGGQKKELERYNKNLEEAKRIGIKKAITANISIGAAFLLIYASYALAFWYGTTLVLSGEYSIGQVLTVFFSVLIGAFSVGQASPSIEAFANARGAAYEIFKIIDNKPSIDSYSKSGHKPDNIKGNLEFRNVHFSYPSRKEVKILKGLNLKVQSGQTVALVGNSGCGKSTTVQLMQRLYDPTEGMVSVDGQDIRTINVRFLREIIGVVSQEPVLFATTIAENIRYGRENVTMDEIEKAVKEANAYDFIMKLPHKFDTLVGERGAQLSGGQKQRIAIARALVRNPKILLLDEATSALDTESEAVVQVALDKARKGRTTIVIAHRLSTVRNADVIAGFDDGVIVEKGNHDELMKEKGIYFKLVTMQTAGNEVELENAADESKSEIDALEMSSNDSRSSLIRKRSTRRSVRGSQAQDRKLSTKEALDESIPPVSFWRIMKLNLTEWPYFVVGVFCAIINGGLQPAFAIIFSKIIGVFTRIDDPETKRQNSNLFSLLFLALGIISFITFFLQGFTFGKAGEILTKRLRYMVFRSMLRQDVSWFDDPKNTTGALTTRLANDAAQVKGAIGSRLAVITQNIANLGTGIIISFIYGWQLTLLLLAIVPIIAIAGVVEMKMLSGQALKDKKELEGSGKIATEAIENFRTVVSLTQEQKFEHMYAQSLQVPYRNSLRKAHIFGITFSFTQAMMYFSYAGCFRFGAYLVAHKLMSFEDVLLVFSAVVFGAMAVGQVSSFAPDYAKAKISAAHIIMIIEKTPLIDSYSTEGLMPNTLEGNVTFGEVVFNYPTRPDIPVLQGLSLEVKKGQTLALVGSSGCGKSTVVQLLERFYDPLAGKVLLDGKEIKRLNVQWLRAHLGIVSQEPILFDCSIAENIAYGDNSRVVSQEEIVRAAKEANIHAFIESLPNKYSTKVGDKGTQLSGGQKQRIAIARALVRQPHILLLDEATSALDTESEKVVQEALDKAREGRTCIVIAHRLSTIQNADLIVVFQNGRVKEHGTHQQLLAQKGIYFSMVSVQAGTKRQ
- assay-summary: Bidirectional transport assay of single components (substrate assay), with or without verapamil
- Assay type: in vitro ADME
- particulars: dog, MDCK-MDR1, Single Component Group, Papp(BL-AP)/Papp(AP-BL), n = 3, read-out: ER (efflux ratio)

# molecule, efflux ratio at 2 h
records = [
    ("COc1ccc(-c2oc3c(CC=C(C)C)c(O)cc(O)c3c(=O)c2O[C@@H]2O[C@@H](C)[C@H](O)[C@@H](O)[C@H]2O)cc1 [BHI, baohuoside I]", 2.26),
    ("C[C@H]1CC[C@@]2(OC1)O[C@H]1C[C@H]3[C@@H]4CC[C@@H]5C[C@@H](O)CC[C@]5(C)[C@H]4CC[C@]3(C)[C@H]1[C@@H]2C [SSG, sarsasapogenin]", "< 2"),
]

Param item = O=c1c2cc(O)c(O)cc2oc2c([C@@H]3O[C@H](CO)[C@@H](O)[C@H](O)[C@H]3O)c(O)cc(O)c12 [IMGF, isomangiferin] ; retrieve measured efflux ratio at 2 h.
< 2

====

- subject-of-test: P-gp (Homo sapiens, UniProt P08183)
- assay-summary: Bidirectional transport assay of AR extract (seven components quantified)
- Format: in vitro ADME
- particulars: dog; AR Extract Group; MDCK-MDR1; n = 3; read-out: ER (efflux ratio)
result-type: efflux ratio at 2 h
I only need the number, thanks.

Param item = C[C@H]1CC[C@@]2(OC1)O[C@H]1C[C@H]3[C@@H]4CC[C@@H]5C[C@@H](O)CC[C@]5(C)[C@H]4CC[C@]3(C)[C@H]1[C@@H]2C [SSG, sarsasapogenin] ; retrieve measured efflux ratio at 2 h.
0.87

====

- subject-of-test: UniProtKB P08183
- assay-summary: Bidirectional transport assay of single components (substrate assay), with or without verapamil
- Format: in vitro ADME
- particulars: dog, MDCK-MDR1, Single Component Group, 2.0 µM TAIII, 1.6 μM TBII, 4.7 μM MGF, 4.7 μM IMGF, 3.4 μM NMGF, 1.2 μM SSG, 3.9 μM BHI, n = 3
result-type: Papp A→B at 2 h (×10⁻⁶ cm/s)
Give a bare numeral; the unit ×10⁻⁶ cm/s is implied.

Param item = C[C@H]1CC[C@@]2(OC1)O[C@H]1C[C@H]3[C@@H]4CC[C@@H]5C[C@@H](O)CC[C@]5(C)[C@H]4CC[C@]3(C)[C@H]1[C@@H]2C [SSG, sarsasapogenin] ; retrieve measured Papp A→B at 2 h.
0.0374

====

- subject-of-test: P-gp (Homo sapiens, UniProt P08183)
- assay-summary: Bidirectional transport assay of single components (substrate assay), with or without verapamil
- Type: in vitro ADME
- particulars: dog, MDCK-MDR1, Single Component Group, n = 3
result-type: Papp B→A at 2 h
Answer shape: numeric part, then the unit.

Enter reported Papp B→A at 2 h observed with P-gp (Homo sapiens, UniProt P08183) for C[C@H]1CC[C@@]2(OC1)O[C@H]1C[C@H]3[C@@H]4CC[C@@H]5C[C@@H](O)CC[C@]5(C)[C@H]4CC[C@]3(C)[C@H]1[C@@H]2C
0.0566 ×10⁻⁶ cm/s

====

- subject-of-test: P-gp (Homo sapiens, UniProt P08183)
- assay-summary: Bidirectional transport assay of single components (substrate assay), with or without verapamil
- Format: in vitro ADME
- particulars: dog, MDCK-MDR1, with verapamil (concentration not stated), Single Component + Verapamil Group, n = 3, read-out: ER (efflux ratio)
Collected efflux ratio at 2 h values appear next to each entry.

Worked cases, answers included:
# compound, result-type, result
measured = [
    ("C[C@H]1CC[C@@]2(OC1)O[C@H]1C[C@H]3[C@@H]4CC[C@@H]5C[C@@H](O[C@@H]6O[C@H](CO)[C@H](O)[C@H](O)[C@H]6O[C@@H]6O[C@H](CO)[C@@H](O)[C@H](O)[C@H]6O)CC[C@]5(C)[C@H]4CC[C@]3(C)[C@H]1[C@@H]2C [TAIII, timosaponin AIII]", "efflux ratio at 2 h", 0.88),
    ("C[C@@H](CC[C@@]1(O)O[C@H]2C[C@H]3[C@@H]4CC[C@@H]5C[C@@H](O[C@@H]6O[C@H](CO)[C@H](O)[C@H](O)[C@H]6O[C@@H]6O[C@H](CO)[C@@H](O)[C@H](O)[C@H]6O)CC[C@]5(C)[C@H]4CC[C@]3(C)[C@H]2[C@@H]1C)CO[C@@H]1O[C@H](CO)[C@@H](O)[C@H](O)[C@H]1O [TBII, timosaponin BII]", "efflux ratio at 2 h", 0.65),
]

Then there is this compound:
Enter reported efflux ratio at 2 h observed with P-gp (Homo sapiens, UniProt P08183) for O=c1c2cc(O[C@@H]3O[C@H](CO)[C@@H](O)[C@H](O)[C@H]3O)c(O)cc2oc2cc(O)c([C@@H]3O[C@H](CO)[C@@H](O)[C@H](O)[C@H]3O)c(O)c12 [NMGF, neomangiferin]
0.52

====

- subject-of-test: UniProtKB P08183
- assay-summary: Bidirectional transport assay of AR extract (seven components quantified)
- Type: in vitro ADME
- particulars: dog; component given as AR extract (10 mg/mL in HBSS); MDCK-MDR1; n = 3
Define the label as y when Papp B→A at 2 h is strictly less than 0.07 ×10⁻⁶ cm/s and as n in all remaining cases.

Below, 3 molecules whose answers are already recorded.
# molecule, subject-of-test, label
rows = [
    ("C[C@H]1CC[C@@]2(OC1)O[C@H]1C[C@H]3[C@@H]4CC[C@@H]5C[C@@H](O)CC[C@]5(C)[C@H]4CC[C@]3(C)[C@H]1[C@@H]2C", "UniProtKB P08183", "y"),
    ("COc1ccc(-c2oc3c(CC=C(C)C)c(O)cc(O)c3c(=O)c2O[C@@H]2O[C@@H](C)[C@H](O)[C@@H](O)[C@H]2O)cc1 [BHI, baohuoside I]", "UniProtKB P08183", "n"),
    ("C[C@@H](CC[C@@]1(O)O[C@H]2C[C@H]3[C@@H]4CC[C@@H]5C[C@@H](O[C@@H]6O[C@H](CO)[C@H](O)[C@H](O)[C@H]6O[C@@H]6O[C@H](CO)[C@@H](O)[C@H](O)[C@H]6O)CC[C@]5(C)[C@H]4CC[C@]3(C)[C@H]2[C@@H]1C)CO[C@@H]1O[C@H](CO)[C@@H](O)[C@H](O)[C@H]1O", "UniProtKB P08183", "n"),
]

Please determine if O=c1c2cc(O[C@@H]3O[C@H](CO)[C@@H](O)[C@H](O)[C@H]3O)c(O)cc2oc2cc(O)c([C@@H]3O[C@H](CO)[C@@H](O)[C@H](O)[C@H]3O)c(O)c12 is below 0.07 ×10⁻⁶ cm/s in terms of Papp B→A at 2 h.
y

Please determine if O=c1c2cc(O)c(O)cc2oc2c([C@@H]3O[C@H](CO)[C@@H](O)[C@H](O)[C@H]3O)c(O)cc(O)c12 is below 0.07 ×10⁻⁶ cm/s in terms of Papp B→A at 2 h.
y

Please determine if C[C@H]1CC[C@@]2(OC1)O[C@H]1C[C@H]3[C@@H]4CC[C@@H]5C[C@@H](O[C@@H]6O[C@H](CO)[C@H](O)[C@H](O)[C@H]6O[C@@H]6O[C@H](CO)[C@@H](O)[C@H](O)[C@H]6O)CC[C@]5(C)[C@H]4CC[C@]3(C)[C@H]1[C@@H]2C is below 0.07 ×10⁻⁶ cm/s in terms of Papp B→A at 2 h.
n

Please determine if O=c1c2cc(O)c(O)cc2oc2cc(O)c([C@@H]3O[C@H](CO)[C@@H](O)[C@H](O)[C@H]3O)c(O)c12 is below 0.07 ×10⁻⁶ cm/s in terms of Papp B→A at 2 h.
n
